# System: PC-3 prostate
# run-description: NCI-60 one-dose screen, 48 h (100 = growth as untreated, 0 = no growth, -100 = all killed)
# details: 10 µM unless noted
About 83,000 compounds went through this panel and 20% of them were active in at least one assay; those are over-represented in the sample as a whole.
Outcome: fulfilled for growth of at least 60%; not fulfilled for anything lower.

COc1ccc(-c2cnc3ccccc3n2)cc1; fulfilled
COc1cc(C(=O)c2cnc(-c3c[nH]c4cccc(C)c34)[nH]2)cc(OC)c1OC; not fulfilled
Cc1cccc(NC2=C(Cl)C(=O)c3nc(C)ccc3C2=O)c1; not fulfilled

Exam item: Answer whether growth of `COc1c(B(O)O)cc(F)cc1-c1nc2ccc3[nH]ncc3c2c2c1CCCC2` is greater than or equal to 60%.
Marked response: not fulfilled

Exam item: What would you report for CNc1nc2c(s1)C(c1cccc(F)c1)CC(=O)N2 (stereo not given) ?
Marked response: fulfilled

Exam item: Follow-up item: NC1=C(c2nn[nH]n2)C(c2ccccc2Cl)c2ccc3ccccc3c2O1 (stereo not given)
Marked response: not fulfilled

Exam item: Then what about the molecule `CCc1nnc(NC(=O)c2nnn(-c3ccccc3)c2-c2ccco2)s1` ?
Marked response: fulfilled

Exam item: Note, next up: COc1ccc([C@H]2c3cc(OC)c(OC)cc3C=C(C=O)C2CO)cc1OC (stereo not given in full)
Marked response: not fulfilled

Exam item: Same question, `CCCCCCNC(=O)Oc1ccc(/C(=C(\C)c2ccc(Cl)cc2)c2ccc(OCCN(CC)CC)cc2)cc1` this time
Marked response: not fulfilled

Exam item: Could you do the same for CCC12CCC[N+]3([O-])CCC4(C(=Nc5ccccc54)C(O)(C(=O)OC)C1)C23 (stereo not given) , please?
Marked response: fulfilled

###

# Tested on: NCI-H23 lung
# run-description: NCI-60 one-dose screen, 48 h (100 = growth as untreated, 0 = no growth, -100 = all killed)
# details: 10 µM unless noted
The panel holds about 83,000 compounds, 20% with a hit somewhere; the sample as a whole holds those more often.
The entries below come with measured growth values attached.
Numeric only. Scale: %

Answered cases to consult:
Cc1nc(S(=O)(=O)c2ccccc2)c(S(=O)(=O)Cc2ccc([N+](=O)[O-])cc2)o1; 103
O=C(N=c1oc2ccccc2cc1-c1cc2ccccc2[nH]1)Nc1ccc(Cl)cc1; 86.2
Cc1nc(/N=C(\N)NC(=O)Nc2ccccc2Cl)sc1C; 42.6
Cc1ccc(C2CC(c3ccc(Nc4ccnc5cc(Cl)ccc45)cc3)=NN2C=O)cc1 (centres undefined); 60.3
O=c1c2cc(F)ccc2sc2c(NCCCNCCO)nc3ccc(F)cc3c12; 82.5

Exam item: Requested read-out growth, target or system NCI-H23 lung, entry `COc1cc(C(=O)c2cc(C)c3[nH]c4ccc(O)cc4c3c2C)cc(OC)c1OC`
Marked response: 31.4

Exam item: Entry to check: COc1ccc(N2C(=O)C(Oc3ccccc3)C2c2ccc(C)cc2)cc1 (centres undefined)
Marked response: 91

###

Quick reference: growth of the listed items.
# System: HT29 colon
# run-description: NCI-60 one-dose screen, 48 h (100 = growth as untreated, 0 = no growth, -100 = all killed)
# details: 10 µM unless noted
# Procedure: Growth inhibition of the HT29 human tumor cell line is measured as a screen for anti-cancer activity. Cells are grown in 96 well plates and exposed to the test compound for 48 hours. Compounds are tested at a single concentration, which is 10^-5 M for most compounds. The reported endpoint is percent growth (GI% or GIPRCNT), where numbers from 0 - 100% represent growth inhibition, and numbers from -100% - 0 represent cell death. For example, a value of 40 represents 60% growth inhibition. […]
This is part of a sample that, as a whole, favours compounds with a hit. Of some 83,000 tested, about 20% had one in any assay.
Write the value in % as a bare number.

Recorded results for 2 molecules are shown here.
Oc1ccc(C#CCOc2ccccc2)cc1CNCCN(Cc1ccccn1)Cc1ccccn1; 25.5
CCCCCCN1C(=O)/C(=c2\sc3n(c2=O)C2C(NN=3)N(CC)C(=O)N2CC)c2ccccc21 (stereo not given); -24.7

Exam item: Sample `NCCCNc1nc2ccccc2c2c(=O)c3cc(F)cc(F)c3sc12` — what was its growth?
Marked response: -49.7

Exam item: Further, for `Cc1cccc(NC2=C(Cl)C(=O)c3nc(C)ccc3C2=O)c1` ?
Marked response: 115

Exam item: Next molecule up: O=C1NC(=O)C(Cn2cnc3ccccc32)N1 (stereo not given)
Marked response: 105

Exam item: // query: `COc1ccc(C(=O)n2nc(-c3ccccc3)nc2N)cc1OC`
Marked response: 91.9

Exam item: Entry to check: CCOC(=O)C1=C(N)Oc2c(sc3c(C)cccc23)C1c1ccc(F)cc1 (stereo not given)
Marked response: 2.47

###

Quick reference for growth among some molecules
# Test system: IGROV1 ovarian
# run-description: NCI-60 one-dose screen, 48 h (100 = growth as untreated, 0 = no growth, -100 = all killed)
# details: 10 µM unless noted
This is part of a sample that, as a whole, favours compounds with a hit. Of some 83,000 tested, about 20% had one in any assay. Calls of active or inactive are those of the source. The calls were made as follows: active = growth percent below 10; inactive = the rest.

Use these answered entries as a reference point.
COc1ccc(C(=O)/C=C/c2sc(Cl)nc2Cl)cc1; 11.1% (inactive)
O=C(N/N=C/c1c(Cl)cccc1Cl)c1ccc(C(F)(F)F)nc1Nc1cccc(C(F)(F)F)c1; 12.4% (inactive)
CN(C)CCS(=O)(=O)Nc1cc(-c2ccc3ncc(C#N)c(Nc4ccc(F)c(Cl)c4)c3c2)cnc1Cl; -43.3% (active)
Brc1c[n+](Cc2ccc3ccccc3c2)cn1Cc1ccc2ccccc2c1; -51% (active)

Exam item: Request the reported growth associated with `Cc1cc(=O)[nH]c(=O)n1Cc1cn(-c2c3ccccc3nc3ccccc23)nn1`
Marked response: 33% (inactive)

Exam item: Proceed to `CCc1ccc(Oc2c(-c3ccc(OCCc4cccc(C(F)(F)F)c4)cc3O)n[nH]c2C(F)(F)F)cc1`
Marked response: 32.8% (inactive)

Exam item: Repeat for the following molecule: `N#Cc1c(-c2ccc(Cl)cc2)nc2c(c(-c3ccccc3)nn2-c2ccccc2)c1-c1ccc(O)cc1`
Marked response: 69.8% (inactive)

Exam item: Queued: `CN1CCN(c2ccc(-c3ccc4ncc(C#N)c(Nc5ccc(F)c(Cl)c5)c4c3)cn2)CC1`
Marked response: 8.52% (active)

Exam item: Follow-up entry: `CNC(=O)c1[nH]cc(-c2ccccc2)c1-c1cc(OC)c2c(c1OC)OCO2`
Marked response: 103% (inactive)

###

# Test system: SNB-19 CNS
# run-description: NCI-60 one-dose screen, 48 h (100 = growth as untreated, 0 = no growth, -100 = all killed)
# details: 10 µM unless noted
Compounds without any hit were thinned out: in the full panel of roughly 83,000, 20% have a hit.
Measured growth values are reported for all entries that follow.
Number in %, nothing else.

COc1cc(/C=C2\C(=O)Nc3ccc(Br)cc32)cc(OC)c1OC; 81
CNc1nc2c(s1)C(c1cccc(F)c1)CC(=O)N2 (centres undefined); 92.8
CCc1ccc(Oc2c(-c3ccc(OCCc4cccc(C(F)(F)F)c4)cc3O)n[nH]c2C(F)(F)F)cc1; 39.8
CCOC(=O)c1[nH]c(C)c(C(=O)OCc2ccccc2C#N)c1C; 97.1
CCCCn1c(-c2ccc(C(=O)O/N=C(\N)c3ccc(OC)cc3)cc2)nc(-c2ccccc2)c1-c1ccccc1; 23.9
COc1cc2cc(Oc3ccc(NC(=O)Nc4cccc(C(F)(F)F)c4)cc3)c(C)nc2cc1OCCN1CCOCC1; 30.7

Exam item: Recorded growth for `Cc1cccc(NC2=C(Cl)C(=O)c3nc(C)ccc3C2=O)c1` , please?
Marked response: 23.7

Exam item: Also, `COc1ccc(-c2c(C(=O)NS(C)(=O)=O)n(Cc3cccc(C(F)(F)F)c3)c3ccccc23)cc1` please.
Marked response: 93.2

Exam item: Follow-up entry: `Cc1ccc(C(=O)N/N=C/c2cccc(Oc3ccccc3)c2)cn1`
Marked response: 65.6

Exam item: Queued: `c1ccc(CO[C@H]2CO[C@H]3[C@@H]2OC[C@@H]3Oc2ccc(Nc3ncnc4ccsc34)cc2)cc1`
Marked response: 82.7

Exam item: Another molecule to check: `Oc1ccc(-c2nc3ccc4[nH]ncc4c3c3c2CCCC3)c2cccnc12`
Marked response: 13.7

Exam item: Another molecule to look at: `COC(=O)/C=C1\S/C(=N\Nc2ccc([N+](=O)[O-])cc2[N+](=O)[O-])N(C2CCCCC2)C1=O`
Marked response: 51.3

Exam item: // query: `CCCCCCn1c(-c2ccc(C(=O)O/N=C(\N)c3ccc(OC)cc3)cc2)nc(-c2ccccc2)c1-c1ccccc1`
Marked response: 32.5

Exam item: Can you handle C/C=C(\C)C(=O)N[C@H]1[C@@H](OC(C)=O)C[C@]2(C)C3CC[C@@]4(C)C(CC[C@@H]4C(C)N(C)C)C3CCC2[C@H]1O (some centres undefined) next?
Marked response: 101

Exam item: Thanks! And CCCCC1CCCC12NC(=O)NC2=O (centres undefined) ?
Marked response: 104

Exam item: Lookup `COc1cc(Nc2cn[nH]c2-c2ccc(Cl)cc2)cc(OC)c1OC`
Marked response: 56

Exam item: Would you kindly repeat that for `Cc1nn(-c2ccccc2)c2c1N=c1s/c(=C\c3ccc(C(F)(F)F)cc3)c(=O)n1CN2` ?
Marked response: 84.4

Exam item: For `NS(=O)(=O)c1ccc(-n2nc(C(=O)N/N=C\c3ccc(F)cc3)cc2-c2ccc(Br)cc2)cc1` then?
Marked response: 83

Exam item: Moving on to `c1ccc(-c2nc3nonc3nc2-c2ccccc2)cc1`
Marked response: 77.8
